Documented pKi across a set of molecules
Target: Aurora A kinase (Homo sapiens)
Sequence (O14965 1-403): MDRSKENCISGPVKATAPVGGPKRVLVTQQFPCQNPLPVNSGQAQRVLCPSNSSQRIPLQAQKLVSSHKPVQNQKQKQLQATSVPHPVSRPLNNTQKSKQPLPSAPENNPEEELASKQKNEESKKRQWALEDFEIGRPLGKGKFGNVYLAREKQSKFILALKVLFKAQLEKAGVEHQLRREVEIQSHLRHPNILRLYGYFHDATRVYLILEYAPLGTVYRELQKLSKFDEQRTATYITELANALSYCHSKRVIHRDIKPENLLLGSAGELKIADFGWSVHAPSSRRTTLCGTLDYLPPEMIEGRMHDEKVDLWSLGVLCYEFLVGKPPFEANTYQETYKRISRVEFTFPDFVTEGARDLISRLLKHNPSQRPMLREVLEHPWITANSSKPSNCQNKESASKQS
Experiment: fluorescence anisotropy competition assay (TPX2 displacement)
Type: binding
Set-up: gene AURKA; with TPX2
Settings: read-out: K i ^b
pKi: −log10 of the molar value.

item-smiles	pKi
Cc1ccc(-c2cc(C(=O)O)c3ccccc3n2)cc1F	5.06
Cc1ccc(-c2cc(C(=O)O)c3ccccc3n2)cc1Br	5.64

Hello, the source for this data is paper PMC5591577, in case you need it.
